Experiment: Apparent permeability across basolateral to apical side in human Caco-2 cells at 10 uM incubated for 1 hrs by LC-MS/MS analysis
ENDPOINT LABEL: Papp B→A at 1 h, 10 µM (×10⁻⁶ cm/s)

>>> print(df.to_string())
                                    molecule  result
 0  CC(C)Nc1nc(N[C@H](C)C(F)(F)F)nc(C2=CC(F)CCC2)n1 (mixture of isomers)     5.2
 1  C[C@@H](Nc1nc(NC2CCC2)nc(C2=CC(O)CCC2)n1)C(F)(F)F (mixture of isomers)    27.5
 2  CC(C)Nc1nc(N[C@H](C)C(F)(F)F)nc(C2=CC(F)(F)CCC2)n1       4
 3  C[C@@H](Nc1nc(N[C@H](C)C(F)(F)F)nc(C2=C(F)C(O)C(F)(F)CC2)n1)C(F)(F)F (mixture of isomers)    25.1
 4  C[C@@H](Nc1nc(N[C@H](C)C(F)(F)F)nc(C2=CC(O)CCC2)n1)C(F)(F)F (mixture of isomers)    28.6
 5  C[C@@H](Nc1nc(N[C@H](C)C(F)(F)F)nc(C2=C(F)C(O)CCC2)n1)C(F)(F)F (mixture of isomers)    15.5
 6  C[C@@H](Nc1nc(N[C@H](C)C(F)(F)F)nc(C2=C(F)[C@@H](O)CCC2)n1)C(F)(F)F    25.9
 7  C[C@@H](Nc1nc(NC2CCCC2)nc(C2=CC(O)CCC2)n1)C(F)(F)F (mixture of isomers)    13.6
 8  CC(C)Nc1nc(N[C@H](C)C(F)(F)F)nc(C2=C[C@@H](O)CCC2)n1    34.1
 9  C[C@@H](Nc1nc(N[C@H](C)C(F)(F)F)nc(C2=C(F)[C@H](O)CCC2)n1)C(F)(F)F      26
10  CC(C)Nc1nc(N[C@H](C)C(F)(F)F)nc(C2=CC(O)CCC2)n1 (mixture of isomers)    34.6
11  CC(C)Nc1nc(N[C@H](C)C(F)(F)F)nc(C2=CCCCC2)n1     3.3
12  C[C@@H](Nc1nc(N[C@H](C)C(F)(F)F)nc(C2=C(F)[C@H](O)C(F)(F)CC2)n1)C(F)(F)F      24

---

Test: Volume of distribution at steady state in male Sprague-Dawley rat at 1 mg/kg, iv measured after 24 hrs by LC/MS/MS analysis
Type: ADME, organism-based
Conditions: in vivo, read-out: Vdss
ENDPOINT LABEL: Vd (L/kg)

                                   compound  result
0  C[C@@H](Nc1nc(N[C@H](C)C(F)(F)F)nc(C2=C(F)[C@H](O)C(F)(F)CC2)n1)C(F)(F)F [RANOSIDENIB]    3.67

---

Experiment: Volume of distribution at steady state in male ICR mouse at 2.5 mg/kg, iv measured after 8 hrs by LC/MS/MS analysis
Assay type: ADME, organism-based
Conditions: in vivo, read-out: Vdss
Known Vd of a selection of molecules
ENDPOINT LABEL: Vd (L/kg)

In [3]: df
Out[3]:
                              line_notation  endpoint_label  result
0  N#Cc1ccnc(N2C(=O)CC[C@H]2C(=O)N(c2cncc(F)c2)[C@H](C(=O)NC2CC(F)(F)C2)c2ccccc2Cl)c1              Vd    1.94
1  C[C@@H](Nc1nc(N[C@H](C)C(F)(F)F)nc(C2=C(F)[C@@H](O)CCC2)n1)C(F)(F)F              Vd    1.16
2  C[C@@H](Nc1nc(N[C@H](C)C(F)(F)F)nc(C2=C(F)[C@H](O)C(F)(F)CC2)n1)C(F)(F)F              Vd    2.57
3  CC(C)(O)CNc1nc(Nc2ccnc(C(F)(F)F)c2)nc(-c2cccc(C(F)(F)F)n2)n1              Vd    1.72

---

Test: AUC(0 to t) in male Sprague-Dawley rat at 1 mg/kg, iv measured after 144 hrs by LC/MS/MS analysis
Format: ADME, organism-based
Details: in vivo
ENDPOINT LABEL: AUC(0-t) at 144 h (ng·h/mL)

>>> print(df.to_string())
                                   molecule  result
0  C[C@@H](Nc1nc(N[C@H](C)C(F)(F)F)nc(C2=C(F)[C@H](O)C(F)(F)CC2)n1)C(F)(F)F [RANOSIDENIB]   17100

---

Experiment: Half life in male ICR mouse at 10 mg/kg, po measured after 8 hrs by LC/MS/MS analysis
Assay type: ADME, organism-based
Settings: in vivo
ENDPOINT LABEL: half-life (h)

>>> print(df.to_string())
                              line_notation  endpoint_label  result
0  CC(C)(O)CNc1nc(Nc2ccnc(C(F)(F)F)c2)nc(-c2cccc(C(F)(F)F)n2)n1       half-life     3.3
1  N#Cc1ccnc(N2C(=O)CC[C@H]2C(=O)N(c2cncc(F)c2)[C@H](C(=O)NC2CC(F)(F)C2)c2ccccc2Cl)c1       half-life     2.6
2  C[C@@H](Nc1nc(N[C@H](C)C(F)(F)F)nc(C2=C(F)[C@H](O)C(F)(F)CC2)n1)C(F)(F)F       half-life    20.2
3  C[C@@H](Nc1nc(N[C@H](C)C(F)(F)F)nc(C2=C(F)[C@@H](O)CCC2)n1)C(F)(F)F       half-life       2

---

Assay: Cmax in male ICR mouse at 10 mg/kg, po measured after 8 hrs by LC/MS/MS analysis
Format: ADME, organism-based
Conditions: in vivo
ENDPOINT LABEL: Cmax (ng/mL)

>>> df
                                   molecule  unit_info  result
0  CC(C)(O)CNc1nc(Nc2ccnc(C(F)(F)F)c2)nc(-c2cccc(C(F)(F)F)n2)n1 [ENASIDENIB]      ng/mL    1870
1  C[C@@H](Nc1nc(N[C@H](C)C(F)(F)F)nc(C2=C(F)[C@H](O)C(F)(F)CC2)n1)C(F)(F)F [RANOSIDENIB]      ng/mL    2050
2  N#Cc1ccnc(N2C(=O)CC[C@H]2C(=O)N(c2cncc(F)c2)[C@H](C(=O)NC2CC(F)(F)C2)c2ccccc2Cl)c1 [IVOSIDENIB]      ng/mL    1270
3  C[C@@H](Nc1nc(N[C@H](C)C(F)(F)F)nc(C2=C(F)[C@@H](O)CCC2)n1)C(F)(F)F      ng/mL    4950

---

Assay: Inhibition of IDH1 R132H mutant in human U-87 MG cells incubated for 72 hrs by measuring 2-HG production by fluorescence based analysis
Type: functional, cell-based, U-87MG ATCC
Conditions: Homo sapiens, U-87 MG, 72 h
ENDPOINT LABEL: IC50 (nM)

                                   compound  endpoint_label  unit_info  result
0  C[C@@H](Nc1nc(N[C@H](C)C(F)(F)F)nc(C2=C(F)[C@@H](O)CCC2)n1)C(F)(F)F            IC50         nM     100
1  C[C@@H](Nc1nc(N[C@H](C)C(F)(F)F)nc(C2=C(F)[C@H](O)CCC2)n1)C(F)(F)F            IC50         nM    3260
2  CC(C)Nc1nc(N[C@H](C)C(F)(F)F)nc(C2=CC(O)CCC2)n1 (mixture of isomers)            IC50         nM     658
3  C[C@@H](Nc1nc(N[C@H](C)C(F)(F)F)nc(C2=C(F)[C@H](O)C(F)(F)CC2)n1)C(F)(F)F [RANOSIDENIB]            IC50         nM      50
4  C[C@@H](Nc1nc(N[C@H](C)C(F)(F)F)nc(C2=C(F)C(O)CCC2)n1)C(F)(F)F (mixture of isomers)            IC50         nM     365

Reference for the values: ChEMBL document CHEMBL6103672
